# test_target: human M1 receptor (Homo sapiens, UniProt P11229)
# Construct: made in house; host or cells: Sf9 insect cells (baculovirus)
# Sequence (P11229 1-460): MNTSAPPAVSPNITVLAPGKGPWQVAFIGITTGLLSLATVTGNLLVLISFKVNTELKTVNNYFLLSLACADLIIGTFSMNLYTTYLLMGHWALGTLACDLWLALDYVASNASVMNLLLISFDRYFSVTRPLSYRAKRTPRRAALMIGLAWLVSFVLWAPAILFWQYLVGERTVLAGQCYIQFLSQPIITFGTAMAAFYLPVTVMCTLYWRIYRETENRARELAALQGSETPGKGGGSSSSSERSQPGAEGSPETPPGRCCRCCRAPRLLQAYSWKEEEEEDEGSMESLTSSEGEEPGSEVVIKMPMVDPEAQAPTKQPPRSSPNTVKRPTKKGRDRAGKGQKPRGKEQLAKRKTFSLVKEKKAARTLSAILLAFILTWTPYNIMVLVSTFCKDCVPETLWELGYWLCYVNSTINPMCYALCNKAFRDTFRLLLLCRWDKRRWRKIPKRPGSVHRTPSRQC
# assay_comment: biochemical
# Assay type: binding
# experimental_context: hM1 receptor Ki
For each of the molecules below, state its Ki.

Determine from records and report Ki for O=C1CCN2CCCC1C2 (stereo not drawn) [Compound 9, 1-Azabicyclo[3.3.1]nonan-4-one]
> 100 µM

Respond only with Ki recorded for CCOC(=O)C1=C(O)C2CCCN(C1)C2 (stereo not drawn)
1.01 µM

Look up and report measured Ki for this entry: CN(C)CC1CCC2CN1CCC2=O (stereo not drawn)
> 100 µM

From: patent US6875774B2
